- study system: Histone acetyltransferase type B catalytic subunit (Homo sapiens, UniProt O14929)
- Sequence (O14929 whole entry): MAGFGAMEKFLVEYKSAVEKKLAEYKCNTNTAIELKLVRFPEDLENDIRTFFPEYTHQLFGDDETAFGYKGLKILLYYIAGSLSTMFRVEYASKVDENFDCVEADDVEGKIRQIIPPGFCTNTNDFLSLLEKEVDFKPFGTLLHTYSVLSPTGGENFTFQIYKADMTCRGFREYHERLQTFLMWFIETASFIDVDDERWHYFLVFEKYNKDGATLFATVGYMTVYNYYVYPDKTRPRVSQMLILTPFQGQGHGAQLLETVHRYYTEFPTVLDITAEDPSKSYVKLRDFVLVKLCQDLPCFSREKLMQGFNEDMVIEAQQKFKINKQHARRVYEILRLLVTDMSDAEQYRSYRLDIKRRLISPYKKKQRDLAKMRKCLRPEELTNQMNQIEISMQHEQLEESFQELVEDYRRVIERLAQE
- method description: Inhibition of HAT1 (unknown origin)
measurement kind: IC50

Exercise: Identify measured IC50 associated with CC(c1ccc(N2CCN(C)CC2)cc1)c1ccc2c(c1)Nc1ccccc1S2 (stereo unspecified)
Key: > 10 µM

---

- Test system: MDA-MB-231
- method description: Inhibition of erastin-induced ferroptosis in human MDA-MB-231 cells assessed as cell viability incubated for 48 hrs by MTT assay
- Type: functional, cell-based
- condition parameters: MDA-MB-231, 48 h
measurement kind: pEC50
Quick note: pEC50 means taking -log10 of the concentration in moles per liter.

Exercise: Supply pEC50 value. Item: CC(c1ccc(N2CCN(C)CC2)cc1)c1ccc2c(c1)Nc1ccccc1S2 (stereo unspecified)
Key: 9.37

---

- study system: Indoleamine 2,3-dioxygenase 1 (Homo sapiens)
- Sequence (P14902 whole entry): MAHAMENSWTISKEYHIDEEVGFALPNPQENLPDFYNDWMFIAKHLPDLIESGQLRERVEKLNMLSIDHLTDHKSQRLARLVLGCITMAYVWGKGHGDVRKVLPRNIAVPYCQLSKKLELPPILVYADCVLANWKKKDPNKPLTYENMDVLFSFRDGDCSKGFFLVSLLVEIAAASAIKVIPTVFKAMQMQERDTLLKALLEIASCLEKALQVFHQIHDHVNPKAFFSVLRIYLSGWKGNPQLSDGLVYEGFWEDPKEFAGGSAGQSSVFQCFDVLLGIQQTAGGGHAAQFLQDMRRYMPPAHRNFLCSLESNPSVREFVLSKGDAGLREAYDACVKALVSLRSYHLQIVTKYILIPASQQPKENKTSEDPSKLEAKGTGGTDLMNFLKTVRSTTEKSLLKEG
pIC50: −log10 of the molar value.
measurement kind: pIC50

Exercise: Report pIC50 from Indoleamine 2,3-dioxygenase 1 (Homo sapiens) testing of CC(c1ccc(N2CCN(C)CC2)cc1)c1ccc2c(c1)Nc1ccccc1S2 (stereo unspecified)
Key: < 5.00
